Every entry's value here was drawn from PubChem BioAssay (NCI).

assay comment: NCI Yeast Anticancer Drug Screen. Data for the cln2 rad14 strain (AID 165);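 note: 0% = growth equal to vehicle treated cultures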
condition info: S. cerevisiae cln2 rad14 strain, at 50.0 µM, stronger effect = higher value
Compounds without any hit were thinned out: in the full panel of roughly 79,000, 15% have a hit.
measured parameter: growth inhibition (%)
State the answer as a number, implicitly in %.

For the compound "C[C@@]12CCC3C1C=C1C(=O)c4cc(O)ccc4C(=O)[C@]1(O2)[C@@]3(C)C=O" , what growth inhibition is on record?
51.1

###

assay comment: NCI Yeast Anticancer Drug Screen. Data for the rad50 strain (AID 155);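 note: 0% = growth of vehicle-only cultures of the same strain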
condition info: S. cerevisiae rad50 strain growth inhibition; at 50.0 µM
This is part of a sample that, as a whole, favours compounds with a hit. Of some 79,000 tested, about 15% had one in any assay. Calls of active or inactive are those of the source. No stated cut-off is given here; in the data, active means growth inhibition above about 70%; inactive means the rest.
Bench note: report the call from yes (1) for active, no (0) for inactive

# example entries with known answers
| molecule | class label |
| --- | --- |
| COC1(OC)C(c2ccc(Cl)cc2)C(C#N)(C#N)C1(OC)OC (configuration not stated) | no (0) |
| CS(=O)(=O)OC1CCCSc2ccccc21 (configuration not stated) | no (0) |
| CN1CCC2(CC1)C(=O)N(N1CCCCCC1)C(=O)N2c1ccccc1 | no (0) |
| CC1N=C(SCc2ccc(Cl)cc2)N2C(C)N=C(SCc3ccc(Cl)cc3)N12 (configuration not stated) | no (0) |
| CCOC(=O)c1cccc(Cl)c1C(=O)O | no (0) |

// return assay outcome for NC(=O)NC1CC1c1ccccc1 (configuration not stated)
no (0)

Entry "c1ccc(Oc2ccc(-c3ccccc3)cc2)cc1" : call = ?
no (0)

GET /call?item= "COc1ccc(C2=NC(C)(C)CO2)cc1C" returns the recorded outcome of this test.
no (0)
